# Experimental target: Neuronal acetylcholine receptor subunit alpha-7 (Homo sapiens, UniProt P36544)
# Sequence (P36544 whole entry): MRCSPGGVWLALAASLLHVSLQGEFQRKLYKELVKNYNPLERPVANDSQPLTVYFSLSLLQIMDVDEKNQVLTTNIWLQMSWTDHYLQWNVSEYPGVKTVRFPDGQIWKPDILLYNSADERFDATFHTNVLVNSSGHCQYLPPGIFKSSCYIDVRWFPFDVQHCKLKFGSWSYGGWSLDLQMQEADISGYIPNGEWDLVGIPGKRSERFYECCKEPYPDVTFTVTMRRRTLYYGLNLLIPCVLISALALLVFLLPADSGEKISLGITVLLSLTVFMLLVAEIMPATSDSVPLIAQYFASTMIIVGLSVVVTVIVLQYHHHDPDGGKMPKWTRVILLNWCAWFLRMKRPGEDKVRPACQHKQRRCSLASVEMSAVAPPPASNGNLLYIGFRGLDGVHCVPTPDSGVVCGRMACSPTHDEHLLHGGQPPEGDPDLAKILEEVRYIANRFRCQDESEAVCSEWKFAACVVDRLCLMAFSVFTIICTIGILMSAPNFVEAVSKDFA
# Experiment: Binding affinity to alpha7 nAChR (unknown origin)
Observable: Ki (µM)

{"Compound": "C[N+](C)(C)CCOC(N)=O [CARBAMOYLCHOLINE]", "Experimental target": "Neuronal acetylcholine receptor subunit alpha-7 (Homo sapiens, UniProt P36544)", "Uom": "µM", "Measurement": 66}
{"Compound": "CNC(=O)OCC[N+](C)(C)C", "Experimental target": "Neuronal acetylcholine receptor subunit alpha-7 (Homo sapiens, UniProt P36544)", "Uom": "µM", "Measurement": 44}

Value source: ChEMBL document CHEMBL2439979
